System: Leishmania donovani
Assay: Antileishmanial activity against Leishmania donovani amastigotes infected in BALB/C mouse assessed as reduction in parasite burden in liver tissue at 50 mg/kg, po administered once per day for 5 days relative to control
Format: functional
Settings: 120 h, time 5 day

>  <COMPOUND>
CC1(COc2ncc(C(F)(F)F)cc2F)CCn2cc([N+](=O)[O-])nc2O1 (stereo not given)

>  <UNIT NAME>
%

>  <inhibition in vivo at 50 mg/kg>
56

$$$$
>  <COMPOUND>
CC1(COc2ncc(C(F)(F)F)cc2Cl)CCn2cc([N+](=O)[O-])nc2O1 (stereo not given)

>  <UNIT NAME>
%

>  <inhibition in vivo at 50 mg/kg>
0

$$$$
>  <COMPOUND>
C[C@@]1(COc2ccc(C(F)(F)F)nc2)CCn2cc([N+](=O)[O-])nc2O1

>  <UNIT NAME>
%

>  <inhibition in vivo at 50 mg/kg>
46

$$$$
>  <COMPOUND>
CC1(COc2ccc(C(F)(F)F)nc2)CCn2cc([N+](=O)[O-])nc2O1 (stereo not given)

>  <UNIT NAME>
%

>  <inhibition in vivo at 50 mg/kg>
42

$$$$
>  <COMPOUND>
C[C@]1(COc2ccc(C(F)(F)F)cn2)CCn2cc([N+](=O)[O-])nc2O1

>  <UNIT NAME>
%

>  <inhibition in vivo at 50 mg/kg>
84

$$$$
>  <COMPOUND>
C[C@]1(COc2ccc(C(F)(F)F)nc2)CCn2cc([N+](=O)[O-])nc2O1

>  <UNIT NAME>
%

>  <inhibition in vivo at 50 mg/kg>
72

$$$$
>  <COMPOUND>
O=[N+]([O-])c1cn2c(n1)OC(COc1ccc(C(F)(F)F)cn1)CC2 (stereo not given)

>  <UNIT NAME>
%

>  <inhibition in vivo at 50 mg/kg>
46

$$$$
>  <COMPOUND>
CC1(COc2ccc(C(F)(F)F)nn2)CCn2cc([N+](=O)[O-])nc2O1 (stereo not given)

>  <UNIT NAME>
%

>  <inhibition in vivo at 50 mg/kg>
0

$$$$
>  <COMPOUND>
CC1(COc2cnc(C(F)(F)F)cn2)CCn2cc([N+](=O)[O-])nc2O1 (stereo not given)

>  <UNIT NAME>
%

>  <inhibition in vivo at 50 mg/kg>
17

$$$$
>  <COMPOUND>
C[C@@]1(COc2ccc(C(F)(F)F)cn2)CCn2cc([N+](=O)[O-])nc2O1

>  <UNIT NAME>
%

>  <inhibition in vivo at 50 mg/kg>
38

$$$$
